Where do these numbers come from? They come from patent US4639433A.

Test system: Staphylococcus epidermidis EPI1
Settings: agar dilution
Known MIC of a selection of compounds
Provide only the numeric value, understood in µg/mL.

What the record says about CCCCCCCC(=O)N(C)C(CC(C)C)C(=O)NC1C(=O)NC(CC(N)=O)C(=O)NC2C(=O)NC3C(=O)NC(C(=O)NC(C(=O)O)c4cc(O)cc(O)c4-c4cc3ccc4O)C(O)c3ccc(c(Cl)c3)Oc3cc2cc(c3OC2OC(CO)C(O)C(O)C2OC2CC(C)(N)C(O)C(C)O2)Oc2ccc(cc2Cl)C1O (centres unmarked) : MIC is 32

What the record says about CNC(CC(C)C)C(=O)NC1C(=O)NC(CC(N)=O)C(=O)NC2C(=O)NC3C(=O)NC(C(=O)NC(C(=O)O)c4cc(O)cc(O)c4-c4cc3ccc4O)C(O)c3ccc(c(Cl)c3)Oc3cc2cc(c3OC2OC(CO)C(O)C(O)C2OC2CC(C)(NC(=O)CC(C)C)C(O)C(C)O2)Oc2ccc(cc2Cl)C1O (centres unmarked) : MIC is 8

What the record says about C=CCCCCCCCCC(=O)NC1(C)CC(OC2C(Oc3c4cc5cc3Oc3ccc(cc3Cl)C(O)C3NC(=O)C(NC(=O)C5NC(=O)C(CC(N)=O)NC(=O)C(NC(=O)C(CC(C)C)NC)C(O)c5ccc(c(Cl)c5)O4)c4ccc(O)c(c4)-c4c(O)cc(O)cc4C(C(=O)O)NC3=O)OC(CO)C(O)C2O)OC(C)C1O (centres unmarked) : MIC is 2

What the record says about CNC(CC(C)C)C(=O)NC1C(=O)NC(CC(N)=O)C(=O)NC2C(=O)NC3C(=O)NC(C(=O)NC(C(=O)O)c4cc(O)cc(O)c4-c4cc3ccc4O)C(O)c3ccc(c(Cl)c3)Oc3cc2cc(c3OC2OC(CO)C(O)C(O)C2OC2CC(C)(NC(=O)CCCCCBr)C(O)C(C)O2)Oc2ccc(cc2Cl)C1O (centres unmarked) : MIC is 8

What the record says about CCC(CC)C(=O)NC1(C)CC(OC2C(Oc3c4cc5cc3Oc3ccc(cc3Cl)C(O)C3NC(=O)C(NC(=O)C5NC(=O)C(CC(N)=O)NC(=O)C(NC(=O)C(CC(C)C)NC)C(O)c5ccc(c(Cl)c5)O4)c4ccc(O)c(c4)-c4c(O)cc(O)cc4C(C(=O)O)NC3=O)OC(CO)C(O)C2O)OC(C)C1O (centres unmarked) : MIC is 8

New cases:
What the record says about CCCCCCCCCCCC(=O)N(C)C(CC(C)C)C(=O)NC1C(=O)NC(CC(N)=O)C(=O)NC2C(=O)NC3C(=O)NC(C(=O)NC(C(=O)O)c4cc(O)cc(O)c4-c4cc3ccc4O)C(O)c3ccc(c(Cl)c3)Oc3cc2cc(c3OC2OC(CO)C(O)C(O)C2OC2CC(C)(N)C(O)C(C)O2)Oc2ccc(cc2Cl)C1O (centres unmarked) : MIC is 32

What the record says about CCCCCC(=O)NC1(C)CC(OC2C(Oc3c4cc5cc3Oc3ccc(cc3Cl)C(O)C3NC(=O)C(NC(=O)C5NC(=O)C(CC(N)=O)NC(=O)C(NC(=O)C(CC(C)C)NC)C(O)c5ccc(c(Cl)c5)O4)c4ccc(O)c(c4)-c4c(O)cc(O)cc4C(C(=O)O)NC3=O)OC(CO)C(O)C2O)OC(C)C1O (centres unmarked) : MIC is 16

What the record says about CCCC(=O)NC1(C)CC(OC2C(Oc3c4cc5cc3Oc3ccc(cc3Cl)C(O)C3NC(=O)C(NC(=O)C5NC(=O)C(CC(N)=O)NC(=O)C(NC(=O)C(CC(C)C)NC)C(O)c5ccc(c(Cl)c5)O4)c4ccc(O)c(c4)-c4c(O)cc(O)cc4C(C(=O)O)NC3=O)OC(CO)C(O)C2O)OC(C)C1O (centres unmarked) : MIC is 8

What the record says about CNC(CC(C)C)C(=O)NC1C(=O)NC(CC(N)=O)C(=O)NC2C(=O)NC3C(=O)NC(C(=O)NC(C(=O)O)c4cc(O)cc(O)c4-c4cc3ccc4O)C(O)c3ccc(c(Cl)c3)Oc3cc2cc(c3OC2OC(CO)C(O)C(O)C2OC2CC(C)(NC(=O)CCC(C)=O)C(O)C(C)O2)Oc2ccc(cc2Cl)C1O (centres unmarked) : MIC is 16

What the record says about C=CCCCCCCCCC(=O)N(C)C(CC(C)C)C(=O)NC1C(=O)NC(CC(N)=O)C(=O)NC2C(=O)NC3C(=O)NC(C(=O)NC(C(=O)O)c4cc(O)cc(O)c4-c4cc3ccc4O)C(O)c3ccc(c(Cl)c3)Oc3cc2cc(c3OC2OC(CO)C(O)C(O)C2OC2CC(C)(N)C(O)C(C)O2)Oc2ccc(cc2Cl)C1O (centres unmarked) : MIC is 32

What the record says about CCCCCCCCCCCCCC(=O)NC1(C)CC(OC2C(Oc3c4cc5cc3Oc3ccc(cc3Cl)C(O)C3NC(=O)C(NC(=O)C5NC(=O)C(CC(N)=O)NC(=O)C(NC(=O)C(CC(C)C)NC)C(O)c5ccc(c(Cl)c5)O4)c4ccc(O)c(c4)-c4c(O)cc(O)cc4C(C(=O)O)NC3=O)OC(CO)C(O)C2O)OC(C)C1O (centres unmarked) : MIC is 8
